- Test system: T cell lines obtained from HDM allergic individuals and non-allergics
- experimental-details: In vitro T cell proliferation test in T cell lines (Example 3)
- Assay type: cell-based, human
- study-conditions: T cell lines from non-allergics (n=8); 0.5 or 2 ug/ml; 72 h
experimental-endpoint: % responders of in-vitro T cell proliferation test, Non-allergics (%)
Answers are plain numbers, in %.

Please report the recorded % responders of in-vitro T cell proliferation test, Non-allergics for A022: house dust mite protein; SEQ ID NO: 19 (Der f), 20 (Der p), 317 (Blo t) (protein) NWQMVWQDEFNGGHLDQNHWEFETGGGGWGNNELEFYTANRSQNVRVENGHLVIDVRVESYGGRDFTSGRIHSKQAWAYGKFEARARLPSGHHLWPAIWMFPRDSKYGPWAASGEIDIMEYRGDVHDKIEGTIHYGGQWPNNIYTGSGPHHFNVDFSKDFHNFAVEWDTKEIRWYMDGNKYFSVNIDRNMWSGKGNNPYNKNGQPFDQPFRWILNVAVGGNFFGPGPYVTPDQARHWQKHTMEIDYVRVYQWR . 0
